So basically, if logP comes in under 2 it's 1, and if it's 2 or more it's 0.

Dear colleague, could you confirm whether logP of O=C1OCCC1N1CCN(c2ccccc2)CC1 (configuration not stated) falls below 2? Thanks. 1

Dear colleague, could you confirm whether logP of O=C1OCCC1N1CCN(c2cccc(C(F)(F)F)c2)CC1 (configuration not stated) falls below 2? Thanks. 0

Dear colleague, could you confirm whether logP of O=C(Cc1ccccc1)NC1CCOC1=O (configuration not stated) falls below 2? Thanks. 1

Dear colleague, could you confirm whether logP of O=C1OCCC1N1Cc2ccccc2C1 (configuration not stated) falls below 2? Thanks. 1

Dear colleague, could you confirm whether logP of `COc1ccc(CCNC(C)=C2CCOC2=O)cc1OC` falls below 2? Thanks. 0

Dear colleague, could you confirm whether logP of O=C1OCCC1N1C(=O)c2ccccc2C1=O (configuration not stated) falls below 2? Thanks. 1

Dear colleague, could you confirm whether logP of O=C1OCCC1N1CCC(c2ccccc2)CC1 (configuration not stated) falls below 2? Thanks. 0

----------
VALUE_TYPE: logP
// keep it numeric: no unit symbol after the value

I'd like to know its logP. The molecule in question is O=C1CC(N2CCN(c3ccccc3)CC2)CO1 (configuration not stated) 1.22

I'd like to know its logP. The molecule in question is COc1cc2c(cc1OC)C(c1ccccc1)N(C1CCOC1=O)CC2 (configuration not stated) 3.12

I'd like to know its logP. The molecule in question is COc1ccccc1N1CCN(C2CCOC2=O)CC1 (configuration not stated) 1.44

I'd like to know its logP. The molecule in question is COc1ccc(CNC2CCOC2=O)cc1 (configuration not stated) 1.43

I'd like to know its logP. The molecule in question is COc1cc2c(cc1OC)CN(C1CCOC1=O)CC2 (configuration not stated) 1.83

I'd like to know its logP. The molecule in question is O=C1OCCC1Oc1ccc(Oc2ccccc2)cc1 (configuration not stated) 1.32

I'd like to know its logP. The molecule in question is O=C1OCCC1NCc1ccccc1C(F)(F)F (configuration not stated) 1.83

----------
VALUE_TYPE: logP
// keep it numeric: no unit symbol after the value

I'd like to know its logP. The molecule in question is Cc1cccc(C)c1NC1CCOC1=O (stereo not given) 1.39

I'd like to know its logP. The molecule in question is O=C1OCCC1N1CCc2ccccc2C1 (stereo not given) 1.6

I'd like to know its logP. The molecule in question is CC1CC(N2CCN(c3ccccc3)CC2)C(=O)O1 (stereo not given) 1.56

I'd like to know its logP. The molecule in question is CC1CC(NCc2ccccc2)C(=O)O1 (stereo not given) 1.76

I'd like to know its logP. The molecule in question is O=C(NC1CCOC1=O)c1ccccc1 (stereo not given) 0.84

I'd like to know its logP. The molecule in question is O=C1OCCC1NCc1ccccc1 (stereo not given) 1.47

I'd like to know its logP. The molecule in question is COc1cccc(N2CCN(C3CCOC3=O)CC2)c1 (stereo not given) 2.29

I'd like to know its logP. The molecule in question is O=C1OCCC1NCc1ccc(Cl)cc1 (stereo not given) 1.97

I'd like to know its logP. The molecule in question is COc1ccc(N2CCN(C3CCOC3=O)CC2)cc1 (stereo not given) 1.46

I'd like to know its logP. The molecule in question is `CC(NCc1ccccc1)=C1CCOC1=O` 2.21

I'd like to know its logP. The molecule in question is NC(=O)c1ccccc1OC1CCOC1=O (stereo not given) 0.93

I'd like to know its logP. The molecule in question is O=C1OCCC1N1CCN(c2ccc(F)cc2)CC1 (stereo not given) 2.05

I'd like to know its logP. The molecule in question is O=C1OCCC1N1CCN(C(c2ccccc2)c2ccccc2)CC1 (stereo not given) 3.28

I'd like to know its logP. The molecule in question is COc1ccc(Cl)cc1N1CCN(C2CCOC2=O)CC1 (stereo not given) 1.18

I'd like to know its logP. The molecule in question is `CC(Nc1ccccc1)=C1CCOC1=O` 2.27
